Just for reference, the supplement of paper PMC4466140 is where these values come from.

- targetUnderTest: CaAbp1-D1
- protocolText: SPOT peptide array binding signal intensity (averaged, normalized) (arbitrary units (background-subtracted, floor 0; scale differs between SH3 domains)); higher = stronger binding of the SH3 domain to the peptide
measuredParameter: SPOT peptide array binding signal intensity

[
  {
    "binder": "MTKTPETSPPKRPMG",
    "operator": "=",
    "measuredValue": 36
  },
  {
    "binder": "APPPPPRRATPEKKP",
    "operator": "=",
    "measuredValue": 62
  },
  {
    "binder": "FPPKRKPLLRPQRSD",
    "operator": "=",
    "measuredValue": 1450
  },
  {
    "binder": "KNPRRQLQIPRQQPS",
    "operator": "=",
    "measuredValue": 728
  },
  {
    "binder": "KTRLRPAFIQQLWSS",
    "operator": "=",
    "measuredValue": 130
  },
  {
    "binder": "GKLKHIPRRPYEIER",
    "operator": "=",
    "measuredValue": 129
  },
  {
    "binder": "DGNEEKPLLPTRPNK",
    "operator": "≤",
    "measuredValue": 0
  }
]
